Source listed as patent US20240024403A1.

Target or system human cannabinoid CB2 receptor protein (Homo sapiens (Human), UniProt P34972): recorded pIC50 listed per item.
Scale: negative log10 of molar concentration, which is what pIC50 denotes.

{"compound": "CC(C)=CCC12Oc3c(c(O)cc(O)c3C3C=C(C)CC(c4ccc(O)cc4O)C3C(=O)c3ccc(O)cc3O)C(=O)C1(O)Oc1cc(O)ccc12 (centres unmarked) [Sanggenon, Sanggenon C/D/]", "measurement_target": "human cannabinoid CB2 receptor protein (Homo sapiens (Human), UniProt P34972)", "experimental_readout": "pIC50", "test_result": 4.62}

Turning now to a further record.
q: What does the data say about its pIC50? Entry: CC(C)=CCc1c(-c2ccc(O)cc2O)oc2c(C3C=C(C)CC(c4ccc(O)cc4O)C3C(=O)c3ccc(O)cc3O)c(O)cc(O)c2c1=O (centres unmarked) [Kuwanon G]
a: 4.54
